B1: scFv; the commonest letter at each place (parent)
chain 1: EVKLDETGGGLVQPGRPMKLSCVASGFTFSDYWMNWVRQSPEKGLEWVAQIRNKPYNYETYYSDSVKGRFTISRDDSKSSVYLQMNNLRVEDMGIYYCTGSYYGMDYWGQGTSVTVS
chain 2: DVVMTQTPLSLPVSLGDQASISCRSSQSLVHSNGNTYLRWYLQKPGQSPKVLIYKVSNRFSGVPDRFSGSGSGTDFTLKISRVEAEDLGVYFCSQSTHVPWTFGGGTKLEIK

Variants of: B1
Experiment: Kd (Tite-Seq)
Details: with fluorescein; format: scFv 4-4-20, heavy + light
pKd: −log10 of the molar value.
OBSERVED_PROPERTY: pKd

Take a look at these entries with their results.
>  <MUTANT>
chain 1 N35E V37W

>  <pKd>
≤ 5.00

$$$$
>  <MUTANT>
chain 1 Y32A M34S

>  <pKd>
≤ 5.00

$$$$

# input Which pKd value belongs to chain 1 S30L ?
# output 8.20

# input Next variant: chain 1 M105W Y107P
# output ≤ 5.00

# input Same question, chain 1 S101I Y102V this time
# output ≤ 5.00
